target: HLA-A*02:11; experiment: IEDB peptide-MHC binding, purified MHC/direct/fluorescence; filed as Kd, often an IC50 or EC50 that approximates it; bounds were set here for any values at or beyond the usual limits of such assays; details: source organism: Orthohantavirus sangassouense

- CHAIN: "SPGDNSAKF"
  Kd: "≥ 20 µM"
- CHAIN: "MRNTIMASK"
  Kd: "≥ 20 µM"

====

target: HLA-A*02:01; assay: IEDB peptide-MHC binding, purified MHC/direct/fluorescence; filed as Kd, often an IC50 or EC50 that approximates it; bounds were set here for any values at or beyond the usual limits of such assays; conditions: source organism: Salmonella enterica subsp. enterica serovar Typhi
pKd: −log10 of the molar value.
MEASURED QUANTITY: pKd

- CHAIN: "FIKNPACTV"
  READING QUALIFIER: "="
  OBS VALUE: 5.20
- CHAIN: "REILFHNTM"
  READING QUALIFIER: "≤"
  OBS VALUE: 4.70
